self-cleavage kobs at 640 uM GlcN6P by entry:
B1: glmS ribozyme (parent)
chain: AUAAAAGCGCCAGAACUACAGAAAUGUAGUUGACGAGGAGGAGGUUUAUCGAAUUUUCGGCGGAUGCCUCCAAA

- Variants of: B1
- method_summary: self-cleavage kobs at 640 uM GlcN6P; higher = faster cleavage; RNA array
- condition_info: with glucosamine-6-phosphate
This sample holds only a part of the variants without activity.

Example entries and their recorded answers appear below.
>  <residue_string>
AUAAAAGCGCCAGAACUACAGAAAUGUACUUGACGAGGAGGAGGUUUAUCGAAUUAUCGGCGGAUGCCUCCAAA [G29C U56A]

>  <self-cleavage kobs at 640 uM GlcN6P>
0.000209 s⁻¹

$$$$
>  <residue_string>
AUAAAAGCGCCAGAACUACAGAAAUGUAGUUGACUAGGAGGAGGUUUAUCGAAUUUUUGGCGGUUGCAUCCAAA [G35U C58U A64U C68A]

>  <self-cleavage kobs at 640 uM GlcN6P>
< 1e-05 s⁻¹

$$$$
>  <residue_string>
AUAAACGCGCCAGAAUUACAGAAAUGUAGUUGACGAGGACGAGGUUCAUCGAAUUUUCGUCGGAUGCCUCCAAA [A6C C16U G40C U47C G60U]

>  <self-cleavage kobs at 640 uM GlcN6P>
< 1e-05 s⁻¹

$$$$
>  <residue_string>
AUAAAAGCGCCAGCACUACAGAAAUGUAGUUGACGAAGUGGAGGUUUAUCGAAUUUUCGGCGGAUGCAUCCAAA [A14C G37A A39U C68A]

>  <self-cleavage kobs at 640 uM GlcN6P>
< 1e-05 s⁻¹

$$$$
>  <residue_string>
AUAAAAGCGCCACAACUACAGAAAUGUAGUUGACGAGGAGGAGGUUUAGCGAAUUUUCGGCGGAUGCCUCCAAA [G13C U49G]

>  <self-cleavage kobs at 640 uM GlcN6P>
< 1e-05 s⁻¹

$$$$
>  <residue_string>
AUAAAAGCGCCCUAACUACAGAAAUGUAGUUGACGAGGAGGAGGUUUAUCGAAUUUUCGGCGGAUGCCUCCAAA [A12C G13U]

>  <self-cleavage kobs at 640 uM GlcN6P>
2.43e-05 s⁻¹

$$$$

Query block: Value lookup for self-cleavage kobs at 640 uM GlcN6P; key = AUAAAAGCGCCAGAUCUACAGAAAUGUAGUUUACGGGGAGGAUGUUUAUCGAAUUUUCGGCGGAAGUCUCCAAA [A15U G32U A36G G43U U65A C67U]
Result block: < 1e-05 s⁻¹

Query block: Value lookup for self-cleavage kobs at 640 uM GlcN6P; key = AUAAAAGCGCCAGAAUUACAGAAAUGUAGUUGAUGAGGAGGAGGUUUAUCGAAUUUUCGGCGGAUUCGUCCAAA [C16U C34U G66U C68G]
Result block: 0.000354 s⁻¹

Query block: Value lookup for self-cleavage kobs at 640 uM GlcN6P; key = AUAAAAGCCCCAGAACUACAGAAAUGUAAUUGACGAGGAGGAGGUUUAUCUAAUUUUCGGCGGAUGCCUCCAAA [G9C G29A G51U]
Result block: < 1e-05 s⁻¹

Query block: Value lookup for self-cleavage kobs at 640 uM GlcN6P; key = AUAAAAGCGCCAGAACUACAGAAAUGUAGUUGACGUGGAGGAUGUUUAUCGAAUUUUCGGCGGAAGCCUCCAAA [A36U G43U U65A]
Result block: < 1e-05 s⁻¹

Query block: Value lookup for self-cleavage kobs at 640 uM GlcN6P; key = AUAAACGCGCCAGAACUACAGAAAUGUAUUUGAUGAGGAGGAGGUUGAUCGAAUUUUGGGCGGAUGCCUGCAAA [A6C G29U C34U U47G C58G C70G]
Result block: 0.000686 s⁻¹

Query block: Value lookup for self-cleavage kobs at 640 uM GlcN6P; key = AUAAAACCGCCAGAUCUACAGAAAUGUAGUUGACGAGGAGGAAGUUUGUCGAAUUUUCGGCGGAUGACUCCAAA [G7C A15U G43A A48G C67A]
Result block: < 1e-05 s⁻¹

Query block: Value lookup for self-cleavage kobs at 640 uM GlcN6P; key = AUAAAAGCGCCAGAACUACAGAAAUGUAGUUGACGAGGCGGAGGUUUAUCGAAUUUUCAGCGGAUGCCUCCAAA [A39C G59A]
Result block: < 1e-05 s⁻¹

Query block: Value lookup for self-cleavage kobs at 640 uM GlcN6P; key = AUAAAAUCGCCAGAACUACAGAAAUGUAGUUGACGAGGAGGAUGUUUAUCGAAUUUUCGGCGGAUGCUUCCAAA [G7U G43U C68U]
Result block: < 1e-05 s⁻¹

Query block: Value lookup for self-cleavage kobs at 640 uM GlcN6P; key = AUAAAAGCGCCAGAACUACAGAAAUGUAGUUGACGAGGAGGAGGUGUAUCGAAUUUUCGGCGGAUGCCACCAAA [U46G U69A]
Result block: 0.000212 s⁻¹

Query block: Value lookup for self-cleavage kobs at 640 uM GlcN6P; key = AUAAAAGCGCCAGAACUACAGAAAUGUAGUUGACGAGGAGGAGCUUUAUCGAAUUUUCGGCGGAUGCAUCCAAA [G44C C68A]
Result block: < 1e-05 s⁻¹

Query block: Value lookup for self-cleavage kobs at 640 uM GlcN6P; key = AUAAAAGCGACAGAACUACAGAAAUGUAGUUGACGAGUAGGAGGUUUAUCGAAUUUUCGGCGGAUGCCUCCAAA [C10A G38U]
Result block: < 1e-05 s⁻¹

Query block: Value lookup for self-cleavage kobs at 640 uM GlcN6P; key = AUAAAAGCGCCUGAACUACAGAAAUGUAGUUGACGAGGAGGAGGUUUAUCGAAUUUUCGGCGGAUGCGUCCAAA [A12U C68G]
Result block: 8.22e-05 s⁻¹

Query block: Value lookup for self-cleavage kobs at 640 uM GlcN6P; key = AUAAAAGGGCCAGAACUACAGAAAUGUAGUUGAAGAGGAGGAGGUUUAUCGACUUUUCGCCGGAUGCCUCCAAA [C8G C34A A53C G60C]
Result block: < 1e-05 s⁻¹

Query block: Value lookup for self-cleavage kobs at 640 uM GlcN6P; key = AUAAAAGCCCCAGAACUACAGAAAUGUAGUUUACGAGGAGGAGGUUUAUUGAAUUUUCGGCGGAUGCCUCCAAA [G9C G32U C50U]
Result block: < 1e-05 s⁻¹

Query block: Value lookup for self-cleavage kobs at 640 uM GlcN6P; key = AUAAAAGCGCCAGAUCUACAGAAAUGUAGUUGACGAGUCGUAGGUUUAGCGAAUUUUCGGCGGAUGCCUGGAAA [A15U G38U A39C G41U U49G C70G C71G]
Result block: < 1e-05 s⁻¹

Query block: Value lookup for self-cleavage kobs at 640 uM GlcN6P; key = AUAAAAGCGCCAGAACUACAGAAAUGUAGUUGACGCAGAGGAUGUUUAUCGAAUUUUCGGGGGAUGACUCCAAA [A36C G37A G43U C61G C67A]
Result block: < 1e-05 s⁻¹
